B1: ZNF193 (parent)
chain: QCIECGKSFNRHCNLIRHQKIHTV

Variants of: B1
experiment description: protein stability index of a GFP-peptide fusion (GPS, HEK-293T) (PSI 1-6); higher = more stable;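 further: lentivirally expressed fusions sorted by FACS into six bins by GFP to DsRed ratio, PSI derived from sequencing read proportions per bin multiplied by bin number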
study conditions: c terminus: a fixed tail appended
// reported protein stability index for each item listed
endpoint name: protein stability index

item sequence: QCSECGKSFNRHCNLIRHQKIHTV [I3S]
endpoint name: protein stability index
observed measurement: 4.17
//
item sequence: FCIECGKSFNRHCNLIRHQKIHTV [Q1F]
endpoint name: protein stability index
observed measurement: 2.83
//
item sequence: QCIECGKSWNRHCNLIRHQKIHTV [F9W]
endpoint name: protein stability index
observed measurement: 2.77
//
item sequence: QCIECGYSFNRHCNLIRHQKIHTV [K7Y]
endpoint name: protein stability index
observed measurement: 2.29
//
item sequence: QCIECGKSFNRHYNLIRHQKIHTV [C13Y]
endpoint name: protein stability index
observed measurement: 3.29
//
item sequence: QCIECGKSFNRHCNLIRHVKIHTV [Q19V]
endpoint name: protein stability index
observed measurement: 2.5
//
item sequence: QCIECGKSFNRHCHLIRHQKIHTV [N14H]
endpoint name: protein stability index
observed measurement: 3.44
//
item sequence: QCIECGKGFNRHCNLIRHQKIHTV [S8G]
endpoint name: protein stability index
observed measurement: 2.49
//
item sequence: QCIECGKSFNRHCNLIRHQKIHTD [V24D]
endpoint name: protein stability index
observed measurement: 3.83
//
item sequence: QCIECGKSFNRHCNLITHQKIHTV [R17T]
endpoint name: protein stability index
observed measurement: 3.75
//
item sequence: QCIECGKSMNRHCNLIRHQKIHTV [F9M]
endpoint name: protein stability index
observed measurement: 2.51
//
item sequence: QCIECGKSFNIHCNLIRHQKIHTV [R11I]
endpoint name: protein stability index
observed measurement: 2.89
//
item sequence: QCIECLKSFNRHCNLIRHQKIHTV [G6L]
endpoint name: protein stability index
observed measurement: 1.97
//
item sequence: QCIECGKSFNRHCNLIRHQKIHKV [T23K]
endpoint name: protein stability index
observed measurement: 3.47
//
item sequence: QCIECKKSFNRHCNLIRHQKIHTV [G6K]
endpoint name: protein stability index
observed measurement: 3.54
//
item sequence: QCIETGKSFNRHCNLIRHQKIHTV [C5T]
endpoint name: protein stability index
observed measurement: 1.95
//
item sequence: QVIECGKSFNRHCNLIRHQKIHTV [C2V]
endpoint name: protein stability index
observed measurement: 2.73
//
item sequence: QCIECGKSFNRHCNLIRHQYIHTV [K20Y]
endpoint name: protein stability index
observed measurement: 2.2
//
item sequence: QCIECGKSKNRHCNLIRHQKIHTV [F9K]
endpoint name: protein stability index
observed measurement: 3.06
//
item sequence: QKIECGKSFNRHCNLIRHQKIHTV [C2K]
endpoint name: protein stability index
observed measurement: 1.95
//
item sequence: QMIECGKSFNRHCNLIRHQKIHTV [C2M]
endpoint name: protein stability index
observed measurement: 1.71
//
item sequence: QCIACGKSFNRHCNLIRHQKIHTV [E4A]
endpoint name: protein stability index
observed measurement: 3.12
